From: patent USRE40086E1

Quick reference: MIC of the listed items.
Test system: S. aureus UBMS 88-5 (tetM)
procedureText: MIC, agar dilution
Assay type: cell-based
conditionsUsed: S. aureus UBMS 88-5 (tetM)
Report only the number, with the unit µg/mL understood.

Record summary for COc1ccc(C(=O)Nc2cc(N(C)C)c3c(c2O)C(=O)C2=C(O)C4(O)C(=O)C(C(N)=O)=C(O)C(N(C)C)C4CC2C3)cc1 (stereo not drawn) : reported MIC = 8

New cases:
Record summary for CN(C)c1cc(NC(=O)CO)c(O)c2c1CC1CC3C(N(C)C)C(O)=C(C(N)=O)C(=O)C3(O)C(O)=C1C2=O (stereo not drawn) : reported MIC = 4

Record summary for CN(C)c1cc(NC(=O)c2cccc(C(F)(F)F)c2)c(O)c2c1CC1CC3C(N(C)C)C(O)=C(C(N)=O)C(=O)C3(O)C(O)=C1C2=O (stereo not drawn) : reported MIC = 1
